Tested on: MCF7
Assay: MTT cytotoxicity assay, breast cancer cell line MCF7
Assay type: cell-based
Conditions: Homo sapiens, MCF7, 24 h, read-out: IC50 MCF7
PARAMETER: pIC50
# pIC50 is unitless: minus log10 of the molar concentration; print number only

Lookup: Missing value: pIC50, MCF7, entry CCCCCCCCn1cc(COc2nc3c(c(=O)n(C)c(=O)n3C)n2C)nn1 [Compound 22i] . Fill in?
Found: 3.78

Lookup: Missing value: pIC50, MCF7, entry CCCCCn1cc(COc2nc3c(c(=O)n(C)c(=O)n3C)n2C)nn1 [Compound 22f] . Fill in?
Found: 3.87

Lookup: Missing value: pIC50, MCF7, entry CN(Cc1cnc2nc(N)nc(N)c2n1)c1ccc(C(=O)N[C@@H](CCC(=O)O)C(=O)O)cc1 [MTX, Methotrexate, reference compound] . Fill in?
Found: 4.52

Lookup: Missing value: pIC50, MCF7, entry Cn1c(=O)c2c(nc(OCc3cn(CCCc4ccccc4)nn3)n2C)n(C)c1=O [Compound 22a] . Fill in?
Found: 3.57

Lookup: Missing value: pIC50, MCF7, entry Cn1c(=O)c2c(nc(OCc3cn(C(c4ccccc4)c4ccccc4)nn3)n2C)n(C)c1=O [Compound 22e] . Fill in?
Found: 3.55
